# reported Kd; entries follow
- tested_system: T1, NOD mouse SIRP-α (mouse (NOD strain))
- T1 chain: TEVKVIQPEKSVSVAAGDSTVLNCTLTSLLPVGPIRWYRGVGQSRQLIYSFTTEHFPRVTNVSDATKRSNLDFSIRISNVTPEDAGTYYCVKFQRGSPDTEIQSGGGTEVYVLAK
- assay_method_text: SPR
Report as a plain number; the unit nM is understood.

IN: Report Kd for Hum1/AB27_HC_Mutall (antibody, V domains shown) VH: EVQLVESGGGVVQPGGSLRLSCAASGFRFSSYAMSWVRQAPGKGLEWVSGISSGGDTYYVDSVKGRFTISRDNSKNTLYLQMNSLRAEDTAVYYCARETWNHLFDYWGQGTLVTVSS VL: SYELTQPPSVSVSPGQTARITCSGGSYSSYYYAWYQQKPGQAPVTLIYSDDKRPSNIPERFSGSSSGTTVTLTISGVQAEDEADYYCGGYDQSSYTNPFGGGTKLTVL please.
OUT: 2.92

With those in mind, consider the next binder.
IN: Report Kd for Hum8/AB25_HC_Mutall (antibody, V domains shown) VH: EVQLVESGGGVVQPGGSLRLSCAASGFTFSSNAMSWVRQAPGKGLEWVAGISSGSDTYYGDSVKGRFTISRDNSKNTLYLQMNSLTAEDTAVYYCARETWNHLFDYWGQGTLVTVSS VL: SYELTQPPSVSVSPGQTARITCSGGAYSSYYYAWYQQKPGQAPVLVIYSDSKRPSGIPERFSGSSSGTTVTLTISGVQAEDEADYYCGGYDQSSYTNPFGGGTKLTVL please.
OUT: 20.5
